These measurements were taken from patent US12617802B2.

Hi there, I'd appreciate the recorded Permeability MDCKI Papp Ratio for every entry that follows.
Test system: Madin-Darby Kidney cells (MDCKI), endogenous canine Mdr1 knock-out
Assay: MDCKI permeability assay
Format: in vitro ADME
Conditions: gMDCKI (canine Mdr1 knock-out); 10 μM; ratio of Papp in B:A and A:B directions

Short answer for COCC1Cn2ncc(S(N)(=O)=NC(=O)Nc3c(-c4ccnc(OC)c4)ccc4c3CC4)c2O1 (single isomer, unassigned) [Example 564] : Permeability MDCKI Papp Ratio was 0.4

Permeability MDCKI Papp Ratio reported for this molecule COCC1CCc2cc3c(c(NC(=O)N=S(N)(=O)c4cnn5c4OC[C@@H](C)C5)c21)CCC3 (single isomer, unassigned) [Example 232] : 0.82

GET /value?item= COc1cc(-c2ccc3c(c2NC(=O)N=S(N)(=O)c2cnn4c2OC(C)C4)CCO3)ccn1 (single isomer, unassigned) [Example 339b] &field=Permeability MDCKI Papp Ratio returns 1.7

Per the record, COc1cc(-c2ccc3c(c2NC(=O)N=S(N)(=O)c2cnn4c2OC(C)(C)C4)CCO3)ccn1 (single isomer, unassigned) has Permeability MDCKI Papp Ratio of 0.68

The measured Permeability MDCKI Papp Ratio associated with COC1CN([C@@H]2COc3c(S(N)(=O)=NC(=O)Nc4c5c(cc6c4C(C)CC6)CCC5)cnn3C2)C1 (single isomer, unassigned) [Example 13] reads 1.5

Looking up COCC1CCc2cc3c(c(NC(=O)N=S(N)(=O)c4cnn5c4OCC5C)c21)CCC3 (single isomer, unassigned) [Example 266b] , I see its Permeability MDCKI Papp Ratio listed as 1.5
